System: Cuto-17
Procedure details: CellTiter-Glo cell viability, Cuto-17
Format: cell-based
Condition info: CUTO17, 72 h, read-out: Cuto-17 CTG IC50

Compound: C=CC(=O)Nc1cc(-c2c(-c3cnn(C4COC4)c3)[nH]c3ncc(C(=O)OC(C)C)c(C)c23)ccc1C
IC50: 100 to 500 nM
//
Compound: C=CC(=O)Nc1cc(-c2c(-c3cnn(CCN4CCOCC4)c3)[nH]c3ncc(C(=O)OC(C)C)c(C)c23)ccc1C
IC50: 100 to 500 nM
//
Compound: C=CC(=O)Nc1cc(-c2c(-c3cnn(C4CC4)c3)[nH]c3ncc(C(=O)OC(C)C)c(C)c23)ccc1C
IC50: 100 to 500 nM
//
Compound: C=CC(=O)Nc1cc(-c2c(-c3cnn(CCN(C)C)c3)[nH]c3ncc(C(=O)OC(C)C)c(C)c23)ccc1C
IC50: 100 to 500 nM
//
Compound: C=CC(=O)Nc1cc(-c2c(-c3cnn(C)c3)[nH]c3ncc(OCC)cc23)cc(F)c1C [Example 3, 2,2,2-trifluoroacetate]
IC50: ≤ 50 nM
//
Compound: C=CC(=O)Nc1cc(-c2c(-c3cn[nH]c3)[nH]c3ncc(C(=O)OC(C)C)c(C)c23)ccc1C
IC50: 500 to 1000 nM
//
Compound: C=CC(=O)Nc1cc(-c2c(-c3cnn(C)c3)[nH]c3ncc(C(=O)OC(C)C)cc23)ccc1C [Example 1, 2,2,2-trifluoroacetate]
IC50: 500 to 1000 nM

###

Test system: EGFR Exon 20 InsNPH Ba/F3
Procedure details: CellTiter-Glo cell viability, EGFR Exon 20 InsNPH Ba/F3
Type: cell-based
Condition info: Mus musculus, BaF3, 72 h, read-out: EGFR Exon 20 InsNPH Ba/F3 CTG IC50
pIC50: −log10 of the molar value.

Smiles str: C=CC(=O)Nc1cc(-c2c(-c3cnn(C4CC4)c3)[nH]c3ncc(C(=O)OC(C)C)c(C)c23)ccc1C
pIC50: 7.00 to 7.30

Smiles str: C=CC(=O)Nc1cc(-c2c(-c3cnn(CC4CC4)c3)[nH]c3ncc(C(=O)OC(C)C)c(C)c23)ccc1C
pIC50: 7.00 to 7.30

Smiles str: C=CC(=O)Nc1cc(-c2c(-c3cnn(CC)c3)[nH]c3ncc(C(=O)OC(C)C)cc23)cc(F)c1C
pIC50: 7.00 to 7.30

Smiles str: C=CC(=O)Nc1cc(-c2c(-c3cnn(C4CCC4)c3)[nH]c3ncc(C(=O)OC(C)C)c(C)c23)ccc1C
pIC50: 6.30 to 7.00

###

Overview of recorded IC50 for various compounds
Target: EGFR wt (Homo sapiens)
Sequence (P00533 25-1210): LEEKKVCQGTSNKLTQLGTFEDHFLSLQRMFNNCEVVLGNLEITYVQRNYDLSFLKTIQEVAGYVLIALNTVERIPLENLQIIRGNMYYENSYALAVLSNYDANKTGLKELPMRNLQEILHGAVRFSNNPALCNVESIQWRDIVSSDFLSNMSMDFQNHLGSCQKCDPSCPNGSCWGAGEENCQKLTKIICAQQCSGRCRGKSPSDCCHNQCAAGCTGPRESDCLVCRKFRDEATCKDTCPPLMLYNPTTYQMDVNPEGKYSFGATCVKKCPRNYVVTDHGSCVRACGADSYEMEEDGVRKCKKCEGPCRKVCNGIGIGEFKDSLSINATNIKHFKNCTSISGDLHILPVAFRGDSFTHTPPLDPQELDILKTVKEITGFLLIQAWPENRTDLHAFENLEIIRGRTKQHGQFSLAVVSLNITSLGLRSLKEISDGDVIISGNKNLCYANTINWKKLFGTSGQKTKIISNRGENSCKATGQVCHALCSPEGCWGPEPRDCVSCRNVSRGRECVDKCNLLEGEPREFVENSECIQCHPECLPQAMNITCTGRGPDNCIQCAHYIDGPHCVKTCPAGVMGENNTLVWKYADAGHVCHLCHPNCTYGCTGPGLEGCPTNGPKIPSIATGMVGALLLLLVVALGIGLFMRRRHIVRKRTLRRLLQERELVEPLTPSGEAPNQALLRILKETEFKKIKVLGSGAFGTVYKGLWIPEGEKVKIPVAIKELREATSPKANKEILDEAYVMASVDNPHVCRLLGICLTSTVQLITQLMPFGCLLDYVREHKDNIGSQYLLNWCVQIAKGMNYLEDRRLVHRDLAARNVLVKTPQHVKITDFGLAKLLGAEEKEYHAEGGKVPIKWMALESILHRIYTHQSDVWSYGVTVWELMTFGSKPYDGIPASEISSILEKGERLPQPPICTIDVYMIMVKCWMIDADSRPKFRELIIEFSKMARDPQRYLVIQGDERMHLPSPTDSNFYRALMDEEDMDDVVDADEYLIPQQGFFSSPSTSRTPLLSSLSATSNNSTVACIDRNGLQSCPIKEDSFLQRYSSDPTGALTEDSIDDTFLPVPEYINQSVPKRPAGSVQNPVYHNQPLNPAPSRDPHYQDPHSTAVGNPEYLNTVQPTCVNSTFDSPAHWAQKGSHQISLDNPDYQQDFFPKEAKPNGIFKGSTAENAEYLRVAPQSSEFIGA

Compound: C=CC(=O)Nc1cc(-c2c(-c3cnn(C)c3)[nH]c3ncc(-c4cnn(C)c4)cc23)ccc1C [Example 26, 2,2,2-trifluoroacetate]
IC50: ≤ 50 nM
//
Compound: C=CC(=O)Nc1cc(-c2c(-c3cnn(C4CC4)c3)[nH]c3ncc(C(=O)OC(C)C)c(C)c23)ccc1C [Example 10]
IC50: ≤ 50 nM
//
Compound: C=CC(=O)Nc1cc(-c2c(-c3cnn(C)c3)[nH]c3ncc(C(=O)OC(C)C)cc23)ccc1C [Example 1, 2,2,2-trifluoroacetate]
IC50: ≤ 50 nM

###

System: EGFR Exon 20 InsNPH Ba/F3
Procedure details: CellTiter-Glo cell viability, EGFR Exon 20 InsNPH Ba/F3
Format: cell-based
Condition info: Mus musculus, BaF3, 72 h, read-out: EGFR Exon 20 InsNPH Ba/F3 CTG IC50
Procedure: The CellTiter-Glo Luminescent Cell Viability Assay (Promega) is a homogeneous method of determining the number of viable cells in culture. It is based on quantification of ATP, indicating the presence of metabolically active cells. […] Following incubation the luminescence is recorded on a Victor microplate reader (Perkin Elmer) using a 200 ms integration time. The data is then analyzed with Excel using the XLFIT Plugin (dose response Fit 205) for IC50-determination. […]
Entries and their IC50 values follow.

Molecule: C=CC(=O)Nc1cc(-c2c(-c3cnn(C)c3)[nH]c3ncc(-c4cnn(C5CC5)c4)cc23)ccc1C
IC50: 50 to 100 nM

Molecule: C=CC(=O)Nc1cc(-c2c(-c3cnn(C)c3)[nH]c3ncc(-c4cnn(C)c4)cc23)ccc1C [Example 26, 2,2,2-trifluoroacetate]
IC50: 50 to 100 nM

Molecule: C=CC(=O)Nc1cc(-c2c(-c3cnn(CC)c3)[nH]c3ncc(C(=O)OC(C)C)cc23)ccc1C
IC50: 100 to 500 nM

Molecule: C=CC(=O)Nc1cc(-c2c(-c3cnn(C)c3)[nH]c3ncc(-c4cn(C)nc4C)cc23)ccc1C
IC50: 100 to 500 nM

Molecule: C=CC(=O)Nc1cc(-c2c(-c3cnn(C)c3)[nH]c3ncc(-c4cnn(C)c4C)cc23)ccc1C
IC50: ≤ 50 nM

Molecule: C=CC(=O)Nc1cc(-c2c(-c3cnn(C)c3)[nH]c3ncc(C(=O)OC(C)C)cc23)ccc1C [Example 1, 2,2,2-trifluoroacetate]
IC50: 100 to 500 nM

Molecule: C=CC(=O)Nc1cc(-c2c(-c3cnn(CCOC)c3)[nH]c3ncc(C(=O)OC(C)C)c(C)c23)ccc1C
IC50: 100 to 500 nM

Numbers sourced from patent EP3868759A1.
